Cited source: ChEMBL document CHEMBL1649465

# Test system: Enterobacter cloacae
# test.details: Antimicrobial activity against […] Enterobacter cloacae by broth microdilution method
# Type: functional
Reported MBC values for a set of compounds

{"columns": ["compound", "MBC (µg/mL)"],
 "data": [
  ["CN(C)c1cc(NC(=O)CNC(C)(C)C)c(O)c2c1C[C@H]1C[C@H]3[C@H](N(C)C)C(O)=C(C(N)=O)C(=O)[C@@]3(O)C(O)=C1C2=O [TIGECYCLINE]", 0.5],
  ["NCC[C@H](O)C(=O)N[C@@H]1C[C@H](N)[C@@H](O[C@H]2O[C@H](CN)[C@@H](O)[C@H](O)[C@H]2O)[C@H](O)[C@H]1O[C@H]1O[C@H](CO)[C@@H](O)[C@H](N)[C@H]1O [AMIKACIN]", 1],
  ["C[C@H]1COc2c(N3CCN(C)CC3)c(F)cc3c(=O)c(C(=O)O)cn1c23.C[C@H]1COc2c(N3CCN(C)CC3)c(F)cc3c(=O)c(C(=O)O)cn1c23.O [LEVOFLOXACIN]", 0.03],
  ["C[C@@H](O)[C@H]1C(=O)N2C(C(=O)O)=C(S[C@@H]3CN[C@H](C(=O)N(C)C)C3)[C@H](C)[C@H]12 [MEROPENEM]", 0.03]
]}

----------
# System: Pseudomonas aeruginosa
# test.details: Antimicrobial activity against Pseudomonas aeruginosa isolate 796 by broth microdilution method
# Assay type: functional
Reported MIC values for a set of molecules

{"columns": ["molecule", "MIC"],
 "data": [
  ["CN(C)c1cc(NC(=O)CNC(C)(C)C)c(O)c2c1C[C@H]1C[C@H]3[C@H](N(C)C)C(O)=C(C(N)=O)C(=O)[C@@]3(O)C(O)=C1C2=O [TIGECYCLINE]", "32 µg/mL"],
  ["NCC[C@H](O)C(=O)N[C@@H]1C[C@H](N)[C@@H](O[C@H]2O[C@H](CN)[C@@H](O)[C@H](O)[C@H]2O)[C@H](O)[C@H]1O[C@H]1O[C@H](CO)[C@@H](O)[C@H](N)[C@H]1O [AMIKACIN]", "16 µg/mL"],
  ["C[C@@H](O)[C@H]1C(=O)N2C(C(=O)O)=C(S[C@@H]3CN[C@H](C(=O)N(C)C)C3)[C@H](C)[C@H]12 [MEROPENEM]", "1 µg/mL"],
  ["CO/N=C(\\C(=O)N[C@@H]1C(=O)N2C(C(=O)[O-])=C(C[N+]3(C)CCCC3)CS[C@H]12)c1csc(N)n1", "8 µg/mL"]
]}

----------
# Tested on: Pseudomonas aeruginosa
# test.details: Antimicrobial activity against Pseudomonas aeruginosa isolate 1019 by broth microdilution method
# Assay type: functional
Reported MIC values for a set of molecules
value.type: MIC (µg/mL)

{"columns": ["chemical.string", "number"],
 "data": [
  ["NCC[C@H](O)C(=O)N[C@@H]1C[C@H](N)[C@@H](O[C@H]2O[C@H](CN)[C@@H](O)[C@H](O)[C@H]2O)[C@H](O)[C@H]1O[C@H]1O[C@H](CO)[C@@H](O)[C@H](N)[C@H]1O", 4],
  ["C[C@H]1COc2c(N3CCN(C)CC3)c(F)cc3c(=O)c(C(=O)O)cn1c23.C[C@H]1COc2c(N3CCN(C)CC3)c(F)cc3c(=O)c(C(=O)O)cn1c23.O", 0.5],
  ["C[C@@H](O)[C@H]1C(=O)N2C(C(=O)O)=C(S[C@@H]3CN[C@H](C(=O)N(C)C)C3)[C@H](C)[C@H]12", 1],
  ["CN(C)c1cc(NC(=O)CNC(C)(C)C)c(O)c2c1C[C@H]1C[C@H]3[C@H](N(C)C)C(O)=C(C(N)=O)C(=O)[C@@]3(O)C(O)=C1C2=O", 2]
]}
